assayed target: YES (Homo sapiens)
Construct: purchased Carna Biosciences
Sequence (P07947 whole entry): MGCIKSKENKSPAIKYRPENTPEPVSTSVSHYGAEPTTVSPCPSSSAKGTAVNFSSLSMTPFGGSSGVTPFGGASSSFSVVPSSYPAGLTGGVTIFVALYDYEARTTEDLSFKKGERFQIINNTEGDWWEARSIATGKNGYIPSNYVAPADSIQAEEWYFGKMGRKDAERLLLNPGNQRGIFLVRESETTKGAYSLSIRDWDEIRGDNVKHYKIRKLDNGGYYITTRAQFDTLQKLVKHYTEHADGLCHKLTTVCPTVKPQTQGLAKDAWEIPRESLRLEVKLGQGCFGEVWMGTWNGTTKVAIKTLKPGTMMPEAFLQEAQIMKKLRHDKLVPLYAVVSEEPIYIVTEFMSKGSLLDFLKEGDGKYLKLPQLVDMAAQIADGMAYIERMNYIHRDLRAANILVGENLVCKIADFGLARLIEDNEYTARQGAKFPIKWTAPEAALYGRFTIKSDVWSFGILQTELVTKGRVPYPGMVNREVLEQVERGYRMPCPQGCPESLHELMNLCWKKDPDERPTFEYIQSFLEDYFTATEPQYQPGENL
experimental protocol: cell-free kinase assay
Type: biochemical
test context: YES; ATP concentration at approximately the Km for ATP
observable: pIC50
pIC50 here is simply -log10 of the concentration when that concentration is written in mol/L.

Query :: Using the record for CC(C)C(C)CNCc1ccc2c(c1)[nH]/c(=N\C(=O)c1ccc(C3=CN=NC3)s1)n2CC(C)(C)O (stereo not shown) [BI 10N] , state its measured pIC50.
Result :: 9.00

###

assayed target: MST1 (Homo sapiens, UniProt Q13043)
Construct: purchased Carna Biosciences
Sequence (Q13043 1-487): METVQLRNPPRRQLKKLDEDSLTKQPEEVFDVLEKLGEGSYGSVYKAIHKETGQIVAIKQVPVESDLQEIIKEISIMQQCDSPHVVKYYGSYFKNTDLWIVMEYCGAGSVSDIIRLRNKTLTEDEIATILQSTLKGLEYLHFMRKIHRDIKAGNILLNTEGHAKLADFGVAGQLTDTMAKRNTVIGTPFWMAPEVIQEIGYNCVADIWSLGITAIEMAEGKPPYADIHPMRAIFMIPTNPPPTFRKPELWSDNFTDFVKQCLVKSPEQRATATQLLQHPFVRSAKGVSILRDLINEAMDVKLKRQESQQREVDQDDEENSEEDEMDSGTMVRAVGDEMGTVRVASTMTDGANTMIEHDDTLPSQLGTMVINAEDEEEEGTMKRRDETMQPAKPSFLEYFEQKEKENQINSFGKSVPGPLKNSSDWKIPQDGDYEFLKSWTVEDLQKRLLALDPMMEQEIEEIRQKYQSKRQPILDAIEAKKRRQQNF
experimental protocol: cell-free kinase assay
Assay type: biochemical
test context: Table 2, by Carna Biosciences
observable: IC50 (nM)
Express your answer in nM, writing the number without its unit.

C[C@]12O[C@H](C[C@]1(O)C(=O)O)n1c3ccccc3c3c4c(c5c6ccccc6n2c5c31)CNC4=O [K252b] : 3.43

Query :: Using the record for CC(C)C(C)CNCc1ccc2c(c1)[nH]/c(=N\C(=O)c1ccc(C3=CN=NC3)s1)n2CC(C)(C)O (centres unmarked) [BI 10N] , state its measured IC50.
Result :: 26
